Value source: ChEMBL document CHEMBL5120773

# method.notes: Inhibition of MAPK/ERK signalling pathway in human A2058 cells harbouring BRAF V600E and PTEN deletion mutant coexpressing ERK-KTR fused mScarlett fluorophore incubated for 2 hrs by high-content screening microscopic analysis
# Format: cell-based
# test.parameters: A2058, 2 h
reported.property: IC50 (µM)

Worked examples follow.
CCC(C)C(=O)OCC1(c2ccc(C)cc2OC(=O)C(C)C)CO1 (configuration not stated): 12.9
CCC(C)C(=O)OCC(O)(COC(=O)C(C)C)c1ccc(C)cc1O (configuration not stated): 25.3
Cc1ccc(C(O)(COC(=O)C(C)C)COC(=O)C(C)C)c(O)c1: 43.6
Cc1ccc(C(O)(CO)COC(=O)C(C)C)c(O)c1 (configuration not stated): 34.2

(A) Cc1ccc(C(O)(COC(=O)CC(C)C)COC(=O)C(C)C)c(O)c1 (configuration not stated)
(B) Cc1ccc(C2(COC(=O)C(C)C)CO2)c(OC(=O)C(C)C)c1 (configuration not stated)
(C) Cc1ccc(C2(COC(=O)CC(C)C)CO2)c(OC(=O)C(C)C)c1 (configuration not stated)
Ask | Arrange the 3 compounds by rising IC50, starting with the smallest. // format: requested-order list of labels
Reply | B, C, A
(B: 4.7 µM, C: 9.1 µM, A: 34.4 µM)
